tested on: Calf thymus DNA; assay: Binding affinity to calf thymus DNA by fluorescence assay; format: nucleic-acid assay; conditions: Bos taurus
This listing pairs compounds with measured Kb.
Report the value in ×10⁵ /M with no unit label.

compound: CN(C)CCN1C(=O)c2cccc3cc(-c4cccc([N+](=O)[O-])c4)cc(c23)C1=O
assayed-target: Calf thymus DNA
unit-string: ×10⁵ /M
Kb: 14.8

compound: CN(C)CCN1C(=O)c2cccc3cc(-c4cccs4)cc(c23)C1=O
assayed-target: Calf thymus DNA
unit-string: ×10⁵ /M
Kb: 13.2

compound: CN(C)CCN1C(=O)c2cccc3cc(N)cc(c23)C1=O [AMONAFIDE]
assayed-target: Calf thymus DNA
unit-string: ×10⁵ /M
Kb: 1.05

compound: CN(C)CCN1C(=O)c2cccc3cc(-c4ccc(F)cc4)cc(c23)C1=O
assayed-target: Calf thymus DNA
unit-string: ×10⁵ /M
Kb: 12.4

compound: CN(C)CCN1C(=O)c2cccc3cc(-c4ccc(F)c(F)c4)cc(c23)C1=O
assayed-target: Calf thymus DNA
unit-string: ×10⁵ /M
Kb: 12.8

compound: CN(C)CCN1C(=O)c2cccc3cc(-c4ccccc4)cc(c23)C1=O
assayed-target: Calf thymus DNA
unit-string: ×10⁵ /M
Kb: 10.8

compound: CN(C)CCN1C(=O)c2cccc3cc(-c4ccc(C(F)(F)F)cc4)cc(c23)C1=O
assayed-target: Calf thymus DNA
unit-string: ×10⁵ /M
Kb: 11.8

Consider the record given below.
### Prompt Reported Kb, compound `Cc1ccc(-c2cc3c4c(cccc4c2)C(=O)N(CCN(C)C)C3=O)cc1` : ____
### Response 10.8
